# targetOrTestSystem: LYN (Homo sapiens, UniProt P07948)
# Construct: purchased Caliper Life Sciences
# Sequence (P07948 whole entry, species assumed): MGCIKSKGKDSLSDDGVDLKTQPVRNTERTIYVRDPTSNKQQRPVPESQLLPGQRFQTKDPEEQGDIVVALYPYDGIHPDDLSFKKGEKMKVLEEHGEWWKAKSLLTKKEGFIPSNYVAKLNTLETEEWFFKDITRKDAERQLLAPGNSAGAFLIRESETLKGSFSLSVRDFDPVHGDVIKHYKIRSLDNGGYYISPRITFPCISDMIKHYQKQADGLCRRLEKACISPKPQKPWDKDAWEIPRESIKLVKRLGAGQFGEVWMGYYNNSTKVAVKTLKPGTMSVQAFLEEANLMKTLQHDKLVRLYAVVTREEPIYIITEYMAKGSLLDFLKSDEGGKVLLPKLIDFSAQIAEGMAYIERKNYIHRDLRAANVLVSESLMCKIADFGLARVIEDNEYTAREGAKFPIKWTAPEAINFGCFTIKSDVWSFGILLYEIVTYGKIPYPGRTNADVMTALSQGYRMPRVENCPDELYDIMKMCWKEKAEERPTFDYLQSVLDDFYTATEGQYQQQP
# assayExplanation: Desktop Profiler kinase panel, LYN
# Assay type: biochemical
# protocolConditions: 10 micromolar concentration of the compound; read-out: Percent Inhibition LYN
reportedMetric: inhibition at 10 µM

Form field inhibition at 10 µM, entry CC(=O)Nc1ccc(Oc2ccc3c(=O)[nH]c4ncccc4c3c2)cc1 : > 90%

Entry O=c1[nH]c2nccc(Nc3ccccc3)c2c2ccccc12 — recorded inhibition at 10 µM = > 90%

O=C(Nc1ccc(Nc2ccnc3[nH]c(=O)c4ccccc4c23)cc1)c1ccccc1 yielded inhibition at 10 µM of 70 to 90%

Record NC(=O)c1ccc(Oc2ccc3c(=O)[nH]c4ncccc4c3c2)cc1 . Reported inhibition at 10 µM: 70 to 90%

Form field inhibition at 10 µM, entry O=c1[nH]c2ncccc2c2cc(Nc3cccc(F)c3)ccc12 : > 90%

Summary for this compound, COc1cccc(CNc2ccnc3[nH]c(=O)c4ccccc4c23)c1 : inhibition at 10 µM is 50 to 70%

Query COc1ccc(Nc2ccnc3[nH]c(=O)c4ccccc4c23)cc1 yields inhibition at 10 µM of > 90%

Query Clc1nc2nccc(Nc3ccccc3)c2c2ccccc12 yields inhibition at 10 µM of > 90%

Recorded result, O=c1[nH]c2nccc(NCc3ccccc3)c2c2ccccc12 , inhibition at 10 µM: 70 to 90%
